Numbers sourced from the METLIN SMRT retention time set (Domingo-Almenara et al. 2019).

# RP-LC retention time annotations
PROTOCOL_DESCRIPTION: gradient 5% acetonitrile 3 min, to 50% in 2 min, to 85% in 15 min, held 3 min, 100 µL/min
CONDITION_DETAILS: column: Zorbax Extend-C18 2.1 x 50 mm; eluents: water / acetonitrile, 0.1% formic acid
# unit: s | format: bare number

// known answers, use as guide
MOLECULE: O=C(c1cnn2cc(Br)cnc12)N1CCCC1c1ccccc1F (centres undefined)
RP-LC retention time (s): 841

MOLECULE: Cn1cccc1Cc1nnc(SCC(=O)NCc2ccco2)n1Cc1ccccc1
RP-LC retention time (s): 708

MOLECULE: CCOc1cc(CNC(=O)c2nc(N3CCOCC3)c3ccccc3n2)ccc1OC
RP-LC retention time (s): 660

MOLECULE: Cc1ccc(S(=O)(=O)N2CCC(n3cnc4c(C)cccc4c3=O)CC2)c(C)c1
RP-LC retention time (s): 1060

MOLECULE: CCc1ccc(N2CC(c3nc(-c4ccc(OC)cc4)no3)CC2=O)cc1 (centres undefined)
RP-LC retention time (s): 988

MOLECULE: CC1(C)CC(=O)c2cn(-c3ccccc3)c(=O)c(C(=O)N3CCCC3)c2C1
RP-LC retention time (s): 699

MOLECULE: CCOC(=O)c1nnc2c(-c3ccccc3OC)c(C)nn2c1C
RP-LC retention time (s): 924

MOLECULE: COc1cccc2cc(-c3nnc(NC(=O)NC4CCCC4)o3)oc12
RP-LC retention time (s): 830

Lab note: next molecule to report on.
Reported RP-LC retention time ( COc1ccc(CN2C[C@@H]3C(=O)N(CCc4ccccc4)C(=O)[C@@H]3C2)c(OC)c1 ) = 728
